- Experimental Details: Determination of HPLC retention time (RP-HPLC, polarity)
- Format: physicochemical
- Reported Conditions: RP-HPLC C18, MeCN/water gradient with 0.1% TFA
Kindly supply the reported retention time values for the records listed here.
Answers are plain numbers, in min.

Compound	Value
COc1cc2cc(c1Cl)N(C)C(=O)C[C@H](OC(=O)[C@H](C)N(C)C(=O)CCCCCNC(=O)CCOCCOCCOCCOCCOCCOCCOCCOCCOCCOCCOCCOCCNC(=O)OCC1C3CCC#CCCC31)[C@]1(C)O[C@H]1[C@H](C)[C@@H]1C[C@@](O)(NC(=O)O1)[C@H](OC)/C=C/C=C(\C)C2 (some centres unmarked)	10.1

# input for lookup
Prompt: Fill blank: measured retention time of the compound O=C(CCCCCCNC(=O)OCC1C2CCC#CCCC21)NCc1ccccc1 (centres unmarked) [Compound 19, BCN-Heptanoic Acid Benzylamide] is ____.
Completion: 11.4
